Assay: qHTS assay to identify small molecule that activate the aryl hydrocarbon receptor (AhR) signaling pathway - cell viability counter screen (AID 743086); also: nearly all actives have a fitted effect of over 45% in size
Conditions: HepG2-AhR-luc viability, CellTiter-Fluor, 24 h; series mostly up to 70.3 µM
Results filed as inconclusive are left out. Activity calls are given as the source filed them. Calls follow the shape of the dose curve; as a rule, active = well fitted cell-killing curve with a large enough effect in the repeat runs; inconclusive = weak or mixed curves, or effect the other way; inactive = flat fitted curve, though single readings scatter.
Possible outcomes: active, inactive

compound	label_value
O=[N+]([O-])C(Br)Br	inactive
CNC(=O)Oc1cc(C)cc(C(C)C)c1	inactive
COC(=O)c1ccccc1S(=O)(=O)NC(=O)Nc1nc(C)nc(OC)n1	inactive
CCCCn1cc[n+](C)c1 (tested in a mixture with another compound)	inactive
CCOP(=O)(OCC)Oc1cc(C)nc(C(C)C)n1	inactive
CC(C)C(Br)C(=O)NC(N)=O (centres undefined)	inactive
CC(O)C(=O)[O][Hg][c]1ccccc1 (centres undefined)	active
Cc1ccccc1OP(=O)(Oc1ccccc1C)Oc1ccccc1C	inactive
CCCCCCCCCCCCCCn1cc[n+](C)c1	active
